molecular target: Cytochrome P450 2C19 (Homo sapiens) (UniProt P33261); experiment: Cytochrome P450 Family 2 Subfamily C Member 19 (CYP2C19) small molecule antagonists: luciferase reporter qHTS assay (AID 1671197); conditions: P450-Glo CYP2C19 enzyme, luciferin luminescence, 1 h; series mostly up to 115 µM; also: nearly all actives have a fitted effect of over 65% in size
Sequence (P33261 whole entry, looked up): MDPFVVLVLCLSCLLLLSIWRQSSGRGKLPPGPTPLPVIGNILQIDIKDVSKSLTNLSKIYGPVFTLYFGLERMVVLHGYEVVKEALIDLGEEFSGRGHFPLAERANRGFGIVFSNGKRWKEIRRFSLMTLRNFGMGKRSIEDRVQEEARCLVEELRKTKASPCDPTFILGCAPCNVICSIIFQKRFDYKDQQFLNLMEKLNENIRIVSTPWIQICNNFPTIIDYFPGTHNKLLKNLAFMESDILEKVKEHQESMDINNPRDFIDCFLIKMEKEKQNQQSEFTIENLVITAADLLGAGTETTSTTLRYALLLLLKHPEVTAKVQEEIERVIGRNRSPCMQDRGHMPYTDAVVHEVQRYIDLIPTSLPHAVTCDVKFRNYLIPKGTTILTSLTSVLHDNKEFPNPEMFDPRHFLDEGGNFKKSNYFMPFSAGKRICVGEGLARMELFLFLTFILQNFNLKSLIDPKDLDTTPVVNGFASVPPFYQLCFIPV
Results filed as inconclusive are left out. Active and inactive are the calls of the source. Calls follow the shape of the dose curve; as a rule, active = well fitted inhibition curve with a large enough effect in the repeat runs; inconclusive = weak or mixed curves; inactive = no such curve, though single readings can be large or run the other way.
The reply should be one of these categories: active, inactive

Could you check what this test reported for CC1=CCC(=O)O1 ?
inactive

Could you check what this test reported for C/C=C/C(=O)C1=C(C)CCCC1(C)C ?
active

Could you check what this test reported for CCOCOCC ?
inactive

Could you check what this test reported for C[n+]1c2cc(N)ccc2cc2ccc(N)cc21 (tested in a mixture with another compound) ?
active

Could you check what this test reported for C/C=C/CO ?
inactive

Could you check what this test reported for OCCCS ?
inactive

Could you check what this test reported for O=C1Nc2ccc(Cl)cc2[C@@](C#CC2CC2)(C(F)(F)F)O1 ?
active

Could you check what this test reported for COc1cc(C(=O)NS(=O)(=O)c2ccccc2C)ccc1Cc1cn(C)c2ccc(NC(=O)OC3CCCC3)cc12 ?
inactive

Could you check what this test reported for O=C1NCCN1CCN1CCC(c2cn(-c3ccc(F)cc3)c3ccc(Cl)cc23)CC1 ?
inactive

Could you check what this test reported for O=Cc1ccc(F)cc1 ?
inactive

Could you check what this test reported for Oc1ccc(-c2ccc(O)cc2)cc1 ?
inactive

Could you check what this test reported for C=CC(=O)OCCC#N ?
inactive

Could you check what this test reported for CCCCN(C)C ?
inactive

Could you check what this test reported for CCc1ccc(C)nc1 ?
inactive

###

Assay: qHTS assay to identify small molecule antagonists of the glucocorticoid receptor (GR) signaling pathway - cell viability counter screen (AID 720693); also: nearly all actives have a fitted effect of over 55% in size; also: potency is read from the fitted curve at half-maximal effect
Conditions: GR-bla HeLa viability, CellTiter-Glo luminescence, 18 h, with 5 nM dexamethasone present; series mostly up to 58.5 µM
Description: National Center for Advancing Translational Sciences [NCATS] NIH Chemical Genomics Center [NCGC] U.S. Environmental Protection Agency [EPA] National Institutes of Environmental Health Sciences [NIEHS] National Toxicology Program [NTP] U.S. Food and Drug Administration [FDA] The Glucocorticoid receptor (GR) is one of the members of the nuclear receptor family of ligand-dependent transcription factors. […] The activation of the reporter gene under culture conditions can be detected by fluorescence intensity. […]
Records with an inconclusive call do not appear. Active and inactive are the calls of the source. The call rests on the fitted dose curve; in most records, active means well fitted cell-killing curve with a large enough effect in the repeat runs; inconclusive means weak or mixed curves, or effect the other way; inactive means no such curve, though single readings can be large or run the other way.
Measured Endpoint: Potency

Known Potency results, listed for orientation:
Compound: COC(=O)CC(C)CCC=C(C)C (configuration not stated)
Measured Endpoint: Potency
Result: inactive

Compound: CCCCCCC(C)OC(=O)COc1nc(F)c(Cl)c(N)c1Cl (configuration not stated)
Measured Endpoint: Potency
Result: inactive

Compound: CC(C)(c1cc(Br)c(OCCO)c(Br)c1)c1cc(Br)c(OCCO)c(Br)c1
Measured Endpoint: Potency
Result: 38 µM (active)

Compound: COC(=O)NCCC[Si](OC)(OC)OC
Measured Endpoint: Potency
Result: inactive

Compound: CCCCCCCCCCCC(=O)N(CC)CC
Measured Endpoint: Potency
Result: inactive

Compound: COCC(=O)O[C@]1(CCN(C)CCCc2nc3ccccc3[nH]2)CCc2cc(F)ccc2[C@@H]1C(C)C
Measured Endpoint: Potency
Result: 10.7 µM (active)

Entry Cc1cccc(Br)c1 , Potency reported as inactive

###

test: qHTS assay to identify small molecule antagonists of the thyroid receptor (TR) signaling pathway - cell viability counter screen (AID 743064); settings: GH3.TRE-Luc viability, CellTiter-Fluor, 24 h; series mostly up to 70.3 µM; also: nearly all actives have a fitted effect of over 50% in size
Inconclusive results are not listed. The source made the active and inactive calls. Calls follow the shape of the dose curve; as a rule, active = well fitted cell-killing curve with a large enough effect in the repeat runs; inconclusive = weak or mixed curves, or effect the other way; inactive = no such curve, though single readings can be large or run the other way.
The reply should be one of these categories: TRUE for active, FALSE for inactive

Could you check what this test reported for CCCCCCOc1ccc(O)cc1 ?
TRUE

Could you check what this test reported for ClC/C=C\CCl ?
FALSE

Could you check what this test reported for C=C(C)C(=O)OCCC[Si](Cl)(Cl)Cl ?
FALSE

Could you check what this test reported for SCCCCCCCCS ?
FALSE

Could you check what this test reported for CC(CN(C)C)CN1c2ccccc2CCc2ccccc21 (configuration not stated) ?
TRUE

Could you check what this test reported for C=C1C(C)(C)[C@@]2(Cl)C(Cl)[C@]1(Cl)C(Cl)(Cl)C2(Cl)Cl (some centres not stated) ?
TRUE

Could you check what this test reported for c1ccc(Sc2ccccc2)cc1 ?
FALSE

Could you check what this test reported for CC(=O)OC(OC(C)=O)c1ccc([N+](=O)[O-])o1 ?
TRUE

Could you check what this test reported for C[Si](C)(C)Cl ?
FALSE

Could you check what this test reported for C[C@@]12C(=O)OC(=O)[C@]1(C)C1CCC2O1 ?
TRUE

Could you check what this test reported for CN(C)CCCN1c2ccccc2CCc2ccccc21 ?
TRUE

Could you check what this test reported for O=C1NC2CCCCN2C12CCN(CCCN1c3ccccc3CCc3ccc(Cl)cc31)CC2 (configuration not stated) ?
TRUE

Could you check what this test reported for C/C=C/C=N/NC(=O)c1ccncc1 ?
FALSE

Could you check what this test reported for CC(=O)Nc1ccc(O)cc1 ?
FALSE

Could you check what this test reported for O=C1C=CC(=O)N1c1ccccc1 ?
TRUE

Could you check what this test reported for Cc1c(C(=O)O)cccc1[N+](=O)[O-] ?
FALSE

Could you check what this test reported for CCCCCCCCCCCCCCNCCO ?
FALSE

Could you check what this test reported for CC(C)(C)C1=CC(=O)C=C(C(C)(C)C)C1=O ?
FALSE

Could you check what this test reported for CCN1CCN(c2cc(-c3ccc(F)cc3)c3c(n2)CCCCCC3)CC1 ?
TRUE

Could you check what this test reported for CCCCCCCCCCCCCOP(=O)(O)O ?
FALSE

Could you check what this test reported for COC(=O)C1=C(C)NC(C)=C(C(=O)OCCCN2CCC(c3ccccc3)(c3ccccc3)CC2)C1c1cccc([N+](=O)[O-])c1 (configuration not stated) ?
TRUE

Could you check what this test reported for C=CC(C)(CCC=C(C)C)OC(=O)/C=C/c1ccccc1 (configuration not stated) ?
FALSE

Could you check what this test reported for CCCCCCC(C)Nc1ccc(Nc2ccccc2)cc1 (configuration not stated) ?
TRUE

Could you check what this test reported for O=C1c2c(O)ccc(O)c2C(=O)c2c(NCCNCCO)ccc(NCCNCCO)c21 ?
TRUE

Could you check what this test reported for CC(C)N=C(N)/N=C(\N)Nc1ccc(Cl)cc1 ?
FALSE

Could you check what this test reported for O=C(Nc1ccc(Cl)c(Cl)c1)c1cc(Cl)cc(Cl)c1O ?
TRUE

Could you check what this test reported for CC=O ?
TRUE

Could you check what this test reported for COC(=O)NCCC[Si](OC)(OC)OC ?
FALSE

Could you check what this test reported for c1ccc(Nc2cccc3ccccc23)cc1 ?
TRUE

Could you check what this test reported for COC(=O)[C@]1(C)CCC[C@@]2(C)[C@H]1CC=C1C=C(C(C)C)CC[C@@H]12 ?
TRUE

Could you check what this test reported for CNCC[C@H](Oc1cccc2ccccc12)c1cccs1 ?
TRUE

Could you check what this test reported for CC1=C(/C=C/C(C)=C/C=C/C(C)=C\C=O)C(C)(C)CCC1 ?
TRUE

Could you check what this test reported for C=CC(=O)OCC(O)COc1ccccc1 (configuration not stated) ?
TRUE

Could you check what this test reported for Oc1c(Br)cc(Br)c2cccnc12 ?
TRUE

Could you check what this test reported for O=C(O)c1cccc(Cl)n1 ?
FALSE

Could you check what this test reported for CCCCCCCCCCCCCC[n+]1ccccc1 ?
TRUE

Could you check what this test reported for N#CSCSc1nc2ccccc2s1 ?
TRUE

Could you check what this test reported for O=C1Nc2ccc(Cl)cc2[C@@](C#CC2CC2)(C(F)(F)F)O1 ?
TRUE

Could you check what this test reported for COc1cc(C(=O)NS(=O)(=O)c2ccccc2C)ccc1Cc1cn(C)c2ccc(NC(=O)OC3CCCC3)cc12 ?
TRUE

Could you check what this test reported for CCCC(CC)CCCCCCCN (configuration not stated) ?
FALSE

Could you check what this test reported for CC(NCCC(c1ccccc1)c1ccccc1)c1ccccc1 (configuration not stated) ?
TRUE

Could you check what this test reported for [O]=[Zr] ?
FALSE

Could you check what this test reported for CCN(CC)CCOc1ccc(C(O)(Cc2ccc(Cl)cc2)c2ccc(C)cc2)cc1 (configuration not stated) ?
TRUE

Could you check what this test reported for CCOC(=O)C1=C(C)NC(C)=C(C(=O)OCC)C1c1ccccc1/C=C/C(=O)OC(C)(C)C ?
TRUE

Could you check what this test reported for CCCCCCCCCCOCC(O)CN (configuration not stated) ?
TRUE

Could you check what this test reported for NCCCC(O)(P(=O)(O)O)P(=O)(O)O ?
FALSE

Could you check what this test reported for CN(C)CCCN1c2ccccc2Sc2ccc(C(F)(F)F)cc21 ?
TRUE

Could you check what this test reported for CC(C)(c1cc(Br)c(OCCO)c(Br)c1)c1cc(Br)c(OCCO)c(Br)c1 ?
TRUE

Could you check what this test reported for O=C(O)Cc1ccc(OCCNC[C@H](O)c2ccccc2)cc1 ?
FALSE

Could you check what this test reported for CN1[C@@H]2CC[C@H]1CC(OC(=O)C(CO)c1ccccc1)C2 (some centres not stated) ?
FALSE

Could you check what this test reported for COCC(=O)O[C@]1(CCN(C)CCCc2nc3ccccc3[nH]2)CCc2cc(F)ccc2[C@@H]1C(C)C ?
TRUE

Could you check what this test reported for CCC(C)(C)c1cc(O)c(C(C)(C)CC)cc1O ?
FALSE

Reference source: PubChem BioAssay (Tox21)
